Reference for the values: ChEMBL document CHEMBL5625190

Test system: HCT-116
assayName: Growth inhibition of human HCT-116 cells assessed as reduction in cell viability at 100 ug/ml by SRB colorimetric assay relative to control
Format: functional
assaySetup: read-out: GI
measuredEndpoint: inhibition of growth at 100 µg/mL (%)
One number for each entry, in %.

Quick request: inhibition of growth at 100 µg/mL for each listed item, please.
1. COc1ccc(OC)c(C2N=C(N)Nc3nc4ccccc4n32)c1 (stereo unspecified)
2. CC(C)c1ccc(C2N=C(N)Nc3nc4ccccc4n32)cc1 (stereo unspecified)
3. NC1=Nc2nc3ccccc3n2C(c2ccc(Cl)cc2Cl)N1 (stereo unspecified)
4. NC1=Nc2nc3ccccc3n2C(c2cccc(Cl)c2Cl)N1 (stereo unspecified)
5. NC1=Nc2nc3ccccc3n2C(c2cccc3ccccc23)N1 (stereo unspecified)
6. NC1=Nc2nc3ccccc3n2C(c2cccs2)N1 (stereo unspecified)

Result:
[49.3, 55.6, 51.8, 59.6, 55.7, 64.4]

Quick request: inhibition of growth at 100 µg/mL for each listed item, please.
1. NC1=NC(c2cccnc2)n2c(nc3ccccc32)N1 (stereo unspecified)
2. NC1=Nc2nc3ccccc3n2C(c2ccc3ccccc3c2)N1 (stereo unspecified)
3. NC1=NC(c2ccccc2)n2c(nc3ccccc32)N1 (stereo unspecified)
4. COc1cc(C2NC(N)=Nc3nc4ccccc4n32)ccc1OCc1ccccc1 (stereo unspecified)
5. COc1cccc2c1C(=O)c1c(O)c3c(c(O)c1C2=O)C[C@@](O)(C(=O)CO)C[C@@H]3O[C@H]1C[C@H](N)[C@H](O)[C@H](C)O1

Result:
65.2
50.2
61.1
39
71.3

====

Answer each item with its documented inhibition of growth at 100 µg/mL.
Tested on: MDA-MB-231
assayName: Growth inhibition of human MDA-MB-231 cells assessed as reduction in cell viability at 100 ug/ml by SRB colorimetric assay relative to control
Format: functional
assaySetup: read-out: GI
Include the unit after the number when you answer.

Solved cases (3 shown):
| compound | measuredEndpoint | result |
| --- | --- | --- |
| NC1=Nc2nc3ccccc3n2C(c2cccc3ccccc23)N1 (stereo unspecified) | inhibition of growth at 100 µg/mL | 76.2% |
| Cc1ccc(C2NC(N)=Nc3nc4ccccc4n32)o1 (stereo unspecified) | inhibition of growth at 100 µg/mL | 27.4% |
| CN(C)c1ccc(C2NC(N)=Nc3nc4ccccc4n32)cc1 (stereo unspecified) | inhibition of growth at 100 µg/mL | 61% |

Quick request: inhibition of growth at 100 µg/mL for each listed item, please.
1. NC1=Nc2nc3ccccc3n2C(c2ccc3ccccc3c2)N1 (stereo unspecified)
2. NC1=NC(c2cccnc2)n2c(nc3ccccc32)N1 (stereo unspecified)
3. NC1=Nc2nc3ccccc3n2C(c2cccs2)N1 (stereo unspecified)

Result:
1. 66.6%
2. 30.5%
3. 38.7%

====

experimentalTarget: DNA topoisomerase 2-alpha (Homo sapiens, UniProt P11388)
Sequence (P11388 whole entry): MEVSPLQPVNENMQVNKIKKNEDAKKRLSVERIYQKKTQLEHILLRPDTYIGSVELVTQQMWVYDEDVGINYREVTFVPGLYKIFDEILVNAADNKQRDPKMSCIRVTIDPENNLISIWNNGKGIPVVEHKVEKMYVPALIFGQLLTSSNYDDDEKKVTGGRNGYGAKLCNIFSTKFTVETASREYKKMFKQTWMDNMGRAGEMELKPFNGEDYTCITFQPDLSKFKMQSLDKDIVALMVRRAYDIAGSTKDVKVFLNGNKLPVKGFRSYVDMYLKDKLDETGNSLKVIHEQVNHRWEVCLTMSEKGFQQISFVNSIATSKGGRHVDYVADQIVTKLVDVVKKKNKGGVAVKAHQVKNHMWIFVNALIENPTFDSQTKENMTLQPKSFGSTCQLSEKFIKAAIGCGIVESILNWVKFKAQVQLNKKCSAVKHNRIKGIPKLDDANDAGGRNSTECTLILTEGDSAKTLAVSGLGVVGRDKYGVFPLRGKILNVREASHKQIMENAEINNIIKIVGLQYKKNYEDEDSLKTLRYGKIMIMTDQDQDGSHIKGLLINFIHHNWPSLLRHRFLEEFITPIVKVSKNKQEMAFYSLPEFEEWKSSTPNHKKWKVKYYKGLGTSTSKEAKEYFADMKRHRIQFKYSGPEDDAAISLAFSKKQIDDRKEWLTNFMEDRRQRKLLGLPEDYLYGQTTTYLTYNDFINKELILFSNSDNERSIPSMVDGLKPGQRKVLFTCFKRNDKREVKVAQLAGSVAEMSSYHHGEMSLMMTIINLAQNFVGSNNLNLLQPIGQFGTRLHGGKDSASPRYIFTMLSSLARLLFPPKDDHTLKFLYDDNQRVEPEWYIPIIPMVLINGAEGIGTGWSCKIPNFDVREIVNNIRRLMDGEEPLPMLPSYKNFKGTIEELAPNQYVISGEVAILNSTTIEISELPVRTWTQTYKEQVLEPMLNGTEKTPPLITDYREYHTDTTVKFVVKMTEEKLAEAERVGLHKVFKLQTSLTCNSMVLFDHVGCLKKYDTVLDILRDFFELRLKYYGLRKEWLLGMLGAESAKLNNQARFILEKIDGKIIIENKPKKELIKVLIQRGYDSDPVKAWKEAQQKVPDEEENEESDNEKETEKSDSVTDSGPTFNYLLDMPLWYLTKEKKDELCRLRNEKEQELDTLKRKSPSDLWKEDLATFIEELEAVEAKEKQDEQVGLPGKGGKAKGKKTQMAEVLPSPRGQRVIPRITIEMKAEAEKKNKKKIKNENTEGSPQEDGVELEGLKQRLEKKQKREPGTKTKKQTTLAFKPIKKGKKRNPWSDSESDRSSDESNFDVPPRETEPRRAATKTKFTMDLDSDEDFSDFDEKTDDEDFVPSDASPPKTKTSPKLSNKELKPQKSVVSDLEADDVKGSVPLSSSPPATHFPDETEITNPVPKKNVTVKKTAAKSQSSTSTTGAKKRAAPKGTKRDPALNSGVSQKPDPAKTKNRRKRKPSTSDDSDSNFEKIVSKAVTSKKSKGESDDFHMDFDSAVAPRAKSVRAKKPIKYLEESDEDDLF
assayName: Inhibition of human DNA topoisomerase 2alpha
measuredEndpoint: IC50 (nM)
One number for each entry, in nM.

Query: Tell me IC50 reported for O=C(N/N=C/c1ccncc1)c1cccc2c(=O)c3ccccc3[nH]c12
Result: 2260

====

Test system: MDA-MB-231
assayName: Growth inhibition of human MDA-MB-231 cells assessed as reduction in cell viability at 100 ug/ml by SRB colorimetric assay relative to control
Type: functional
assaySetup: read-out: GI
measuredEndpoint: inhibition of growth at 100 µg/mL (%)
Answers are plain numbers, in %.

Solved cases (3 shown):
| molecule | unitSymbol | numericResult |
| --- | --- | --- |
| NC1=Nc2nc3ccccc3n2C(c2ccc(Cl)c(Cl)c2)N1 (stereo unspecified) | % | 75 |
| NC1=Nc2nc3ccccc3n2C(c2ccc(Cl)cc2Cl)N1 (stereo unspecified) | % | 71.5 |
| COc1ccc(OC)c(C2N=C(N)Nc3nc4ccccc4n32)c1 (stereo unspecified) | % | 64.9 |

Quick request: inhibition of growth at 100 µg/mL for each listed item, please.
1. NC1=NC(c2ccccc2)n2c(nc3ccccc32)N1 (stereo unspecified)
2. COc1cc(C2NC(N)=Nc3nc4ccccc4n32)ccc1OCc1ccccc1 (stereo unspecified)
3. NC1=Nc2nc3ccccc3n2C(c2c[nH]c3ccccc23)N1 (stereo unspecified)
4. CC(C)c1ccc(C2N=C(N)Nc3nc4ccccc4n32)cc1 (stereo unspecified)

Result:
1. 68.2
2. 51.7
3. 34.3
4. 78.6

====

assayName: Growth inhibition of human Oral epithelial cell assessed as reduction in cell viability at 100 ug/ml by SRB colorimetric assay relative to control
Format: toxicity, cell-based
assaySetup: oral epithelial cells, at 100 µg/mL, read-out: GI
measuredEndpoint: inhibition at 100 ug/ml (%)
Numbers only, in %.

Solved cases (3 shown):
| compound | unitSymbol | inhibition at 100 ug/ml |
| --- | --- | --- |
| NC1=Nc2nc3ccccc3n2C(c2cccc3ccccc23)N1 (configuration not stated) | % | 45.9 |
| COc1cccc2c1C(=O)c1c(O)c3c(c(O)c1C2=O)C[C@@](O)(C(=O)CO)C[C@@H]3O[C@H]1C[C@H](N)[C@H](O)[C@H](C)O1 | % | 70.4 |
| NC1=Nc2nc3ccccc3n2C(c2c[nH]c3ccccc23)N1 (configuration not stated) | % | 51.3 |

Quick request: inhibition at 100 ug/ml for each listed item, please.
1. COc1cc(C2NC(N)=Nc3nc4ccccc4n32)ccc1OCc1ccccc1 (configuration not stated)
2. NC1=Nc2nc3ccccc3n2C(c2ccc(Cl)c(Cl)c2)N1 (configuration not stated)

Result:
1: 21; 2: 41.6

Quick request: inhibition at 100 ug/ml for each listed item, please.
1. CN(C)c1ccc(C2NC(N)=Nc3nc4ccccc4n32)cc1 (configuration not stated)
2. NC1=NC(c2cccnc2)n2c(nc3ccccc32)N1 (configuration not stated)
3. CC(C)c1ccc(C2N=C(N)Nc3nc4ccccc4n32)cc1 (configuration not stated)
4. COc1ccc(OC)c(C2N=C(N)Nc3nc4ccccc4n32)c1 (configuration not stated)

Result:
[14.2, 52.7, 7.69, 10.2]

====

Answer each item with its documented inhibition.
experimentalTarget: UniProt:Q02880
Sequence (Q02880 whole entry): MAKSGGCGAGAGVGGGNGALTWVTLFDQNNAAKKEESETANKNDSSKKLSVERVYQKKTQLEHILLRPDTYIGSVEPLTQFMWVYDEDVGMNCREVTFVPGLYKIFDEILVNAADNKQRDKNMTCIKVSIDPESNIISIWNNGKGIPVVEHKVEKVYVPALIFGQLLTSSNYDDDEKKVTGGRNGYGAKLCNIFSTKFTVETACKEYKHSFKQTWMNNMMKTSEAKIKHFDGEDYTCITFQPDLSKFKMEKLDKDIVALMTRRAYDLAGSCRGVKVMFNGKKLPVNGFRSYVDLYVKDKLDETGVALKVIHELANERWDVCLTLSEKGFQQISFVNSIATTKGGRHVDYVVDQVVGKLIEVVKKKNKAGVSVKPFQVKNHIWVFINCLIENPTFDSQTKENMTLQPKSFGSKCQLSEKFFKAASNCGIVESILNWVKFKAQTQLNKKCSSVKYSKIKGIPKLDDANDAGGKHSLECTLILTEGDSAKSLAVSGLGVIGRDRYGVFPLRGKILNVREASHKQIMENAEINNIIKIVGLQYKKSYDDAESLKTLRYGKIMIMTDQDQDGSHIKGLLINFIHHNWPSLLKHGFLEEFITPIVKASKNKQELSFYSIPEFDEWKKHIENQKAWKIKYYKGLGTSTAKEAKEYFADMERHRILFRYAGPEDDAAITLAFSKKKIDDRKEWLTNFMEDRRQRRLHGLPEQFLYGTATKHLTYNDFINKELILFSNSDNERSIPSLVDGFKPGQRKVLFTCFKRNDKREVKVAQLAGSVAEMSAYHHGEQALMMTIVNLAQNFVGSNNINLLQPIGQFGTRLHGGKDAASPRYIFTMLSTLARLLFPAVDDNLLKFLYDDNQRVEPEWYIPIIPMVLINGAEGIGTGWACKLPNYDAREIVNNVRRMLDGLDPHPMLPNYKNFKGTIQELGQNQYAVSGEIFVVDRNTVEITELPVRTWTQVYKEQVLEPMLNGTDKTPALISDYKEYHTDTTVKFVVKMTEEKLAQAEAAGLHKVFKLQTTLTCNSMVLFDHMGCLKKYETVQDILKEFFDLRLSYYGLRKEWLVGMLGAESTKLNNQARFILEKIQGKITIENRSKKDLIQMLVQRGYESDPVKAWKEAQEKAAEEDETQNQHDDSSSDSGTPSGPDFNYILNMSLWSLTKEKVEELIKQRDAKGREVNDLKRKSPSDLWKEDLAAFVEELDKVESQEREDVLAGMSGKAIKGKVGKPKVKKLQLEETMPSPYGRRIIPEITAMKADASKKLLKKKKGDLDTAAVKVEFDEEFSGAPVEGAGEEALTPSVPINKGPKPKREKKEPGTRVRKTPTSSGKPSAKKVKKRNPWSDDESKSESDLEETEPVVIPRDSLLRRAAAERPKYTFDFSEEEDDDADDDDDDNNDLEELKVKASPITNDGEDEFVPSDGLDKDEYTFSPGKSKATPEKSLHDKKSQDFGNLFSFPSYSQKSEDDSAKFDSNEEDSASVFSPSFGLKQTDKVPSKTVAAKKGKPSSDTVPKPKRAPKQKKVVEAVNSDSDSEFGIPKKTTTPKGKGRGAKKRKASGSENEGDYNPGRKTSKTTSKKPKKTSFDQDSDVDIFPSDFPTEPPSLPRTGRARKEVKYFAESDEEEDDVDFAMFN
assayName: Inhibition of human DNA topoisomerase 2-beta by ELISA method relative to control
assaySetup: concentration not given here
Give bare numbers, in %.

Solved cases (3 shown):
| compound | experimentalTarget | inhibition [%] |
| --- | --- | --- |
| NC1=Nc2nc3ccccc3n2C(c2ccc(Cl)c(Cl)c2)N1 (centres undefined) | UniProt:Q02880 | 81.7 |
| COc1cccc2c1C(=O)c1c(O)c3c(c(O)c1C2=O)C[C@@](O)(C(=O)CO)C[C@@H]3O[C@H]1C[C@H](N)[C@H](O)[C@H](C)O1 [DOXORUBICIN] | UniProt:Q02880 | 86.4 |
| NC1=Nc2nc3ccccc3n2C(c2ccc(Cl)cc2Cl)N1 (centres undefined) | UniProt:Q02880 | 87.9 |

We now examine a further compound.
Query: Tell me inhibition reported for CC(C)c1ccc(C2N=C(N)Nc3nc4ccccc4n32)cc1 (centres undefined)
Result: 77.5

====

Answer each item with its documented inhibition of growth at 100 µg/mL.
System: BT-474
assayName: Growth inhibition of human BT-474 cells assessed as reduction in cell viability at 100 ug/ml by SRB colorimetric assay relative to control
Assay type: functional
assaySetup: read-out: GI
Answers are plain numbers, in %.

| molecule | inhibition of growth at 100 µg/mL [%] |
| --- | --- |
| COc1cccc2c1C(=O)c1c(O)c3c(c(O)c1C2=O)C[C@@](O)(C(=O)CO)C[C@@H]3O[C@H]1C[C@H](N)[C@H](O)[C@H](C)O1 | 44.7 |
| CN(C)c1ccc(C2NC(N)=Nc3nc4ccccc4n32)cc1 (configuration not stated) | 60.1 |
| NC1=Nc2nc3ccccc3n2C(c2ccc(Cl)c(Cl)c2)N1 (configuration not stated) | 57.7 |
| CC(C)c1ccc(C2N=C(N)Nc3nc4ccccc4n32)cc1 (configuration not stated) | 61.7 |
| NC1=Nc2nc3ccccc3n2C(c2cccs2)N1 (configuration not stated) | 5.76 |
| NC1=NC(c2ccccc2)n2c(nc3ccccc32)N1 (configuration not stated) | 51.4 |
| NC1=Nc2nc3ccccc3n2C(c2ccc([N+](=O)[O-])cc2)N1 (configuration not stated) | 60.2 |
| COc1cc(C2NC(N)=Nc3nc4ccccc4n32)ccc1OCc1ccccc1 (configuration not stated) | 1 |

Quick request: inhibition of growth at 100 µg/mL for each listed item, please.
1. COc1cc(C2NC(N)=Nc3nc4ccccc4n32)cc(OC)c1OC (configuration not stated)
2. NC1=Nc2nc3ccccc3n2C(c2cccc(Cl)c2Cl)N1 (configuration not stated)

Result:
69.9
60.4

Quick request: inhibition of growth at 100 µg/mL for each listed item, please.
1. Cc1ccc(C2NC(N)=Nc3nc4ccccc4n32)o1 (configuration not stated)
2. COc1ccc(OC)c(C2N=C(N)Nc3nc4ccccc4n32)c1 (configuration not stated)
3. NC1=Nc2nc3ccccc3n2C(c2ccc(Cl)cc2Cl)N1 (configuration not stated)
4. NC1=Nc2nc3ccccc3n2C(c2c[nH]c3ccccc23)N1 (configuration not stated)
5. NC1=Nc2nc3ccccc3n2C(c2ccc3ccccc3c2)N1 (configuration not stated)
6. NC1=Nc2nc3ccccc3n2C(c2cccc3ccccc23)N1 (configuration not stated)
7. NC1=NC(c2cccnc2)n2c(nc3ccccc32)N1 (configuration not stated)

Result:
1. 13.2
2. 46.3
3. 52.4
4. 34.4
5. 55.3
6. 61.4
7. 0.93
